This collection of values is drawn from patent US8034940B2.

This listing pairs molecules with measured Ki.
molecular target: human full-length glucocorticoid receptor (Homo sapiens, UniProt P04150); experiment: Glucocorticoid Receptor Binding Assay (I), fluorescence polarization, Fluormone GS Red; design: purified human recombinant full-length glucocorticoid receptor; purchased Invitrogen Part #2893; conditions: GR Binding Assay (I); read-out: GR (Ki, nM) (GR Binding Assay (I))
Sequence (P04150 whole entry): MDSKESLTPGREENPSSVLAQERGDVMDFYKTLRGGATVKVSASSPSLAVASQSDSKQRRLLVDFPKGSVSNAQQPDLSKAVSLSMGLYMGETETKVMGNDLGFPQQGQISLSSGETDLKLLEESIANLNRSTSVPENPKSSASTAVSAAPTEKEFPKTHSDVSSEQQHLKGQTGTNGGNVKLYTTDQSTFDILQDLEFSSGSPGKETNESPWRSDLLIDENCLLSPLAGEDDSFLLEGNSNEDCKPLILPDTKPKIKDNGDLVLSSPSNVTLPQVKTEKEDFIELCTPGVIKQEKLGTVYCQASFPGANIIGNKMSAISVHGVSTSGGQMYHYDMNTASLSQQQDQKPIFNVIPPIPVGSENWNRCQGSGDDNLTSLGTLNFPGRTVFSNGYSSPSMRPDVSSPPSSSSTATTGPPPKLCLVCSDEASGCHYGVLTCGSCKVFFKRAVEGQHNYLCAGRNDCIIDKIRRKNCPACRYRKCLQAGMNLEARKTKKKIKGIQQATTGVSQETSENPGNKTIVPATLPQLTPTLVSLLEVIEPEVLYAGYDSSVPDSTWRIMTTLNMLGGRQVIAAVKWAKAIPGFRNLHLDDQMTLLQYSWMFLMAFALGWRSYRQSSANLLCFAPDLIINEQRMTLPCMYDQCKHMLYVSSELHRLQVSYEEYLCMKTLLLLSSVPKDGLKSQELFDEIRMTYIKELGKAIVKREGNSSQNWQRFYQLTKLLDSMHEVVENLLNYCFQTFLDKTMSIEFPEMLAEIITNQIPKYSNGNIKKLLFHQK
Endpoint: Ki (nM)

1) COC[C@@H]1CCCN1C(=O)c1ccc(-c2ccc3c(n2)Oc2ccccc2[C@@H]3C(C)(C)C(=O)Nc2nncs2)cc1    12.6
2) CC(C)C(=O)N1CC=C(c2ccc3c(n2)Oc2ccccc2[C@@H]3C(C)(C)C(=O)Nc2nncs2)CC1    78.2
3) CC(C)(C(=O)Nc1nncs1)[C@H]1c2ccccc2Oc2nc(N3CCC(C(=O)N4CCCC4)CC3)ccc21    61.2
4) CC(C)(C(=O)Nc1nncs1)[C@H]1c2ccccc2Oc2nc(-c3ccc(C(=O)N4CCC(O)CC4)cc3)ccc21    14.7
5) CN(C)C(=O)c1ccc(-c2ccc3c(n2)Oc2ccccc2C3C(C)(C)C(=O)NCC(F)(F)F)cc1 (stereo not shown)    692
6) CCS(=O)(=O)N1CCN(C(=O)c2ccc(-c3ccc4c(n3)Oc3ccccc3[C@@H]4C(C)(C)C(=O)Nc3nncs3)cc2)CC1    9.21

* * *

This listing pairs compounds with measured AP-1 Max % inh (Cellular Transrepression Assay).
test system: AP-1 induced transcriptional activity; assay: Cellular Transrepressional Assay (AP-1 luciferase reporter, PMA-activated A549 cells); type: cell-based; conditions: maximum inhibition, Cellular Transrepression Assay
Endpoint: AP-1 Max % inh (Cellular Transrepression Assay) (%)

1. CC(C)(C(=O)Nc1nncs1)[C@H]1c2ccccc2Oc2nc(-c3ccc(C4CCCCC4)cc3)ccc21    62.97
2. CC(C)(C(=O)Nc1nncs1)[C@H]1c2ccccc2Oc2nc(-c3cccc(F)c3)ccc21    45.65
3. CCCCc1ccc(-c2ccc3c(n2)Oc2ccccc2C3C(C)(C)C(=O)Nc2nncs2)cc1 (centres unmarked)    63.05
4. CC(C)(C)c1ccc(-c2ccc3c(n2)Oc2ccccc2C3C(C)(C)C(=O)Nc2nncs2)cc1 (centres unmarked)    37.96
5. CC(C)(C(=O)Nc1nncs1)[C@H]1c2ccccc2Oc2nc(-c3ccc(C(=O)N4CCOCC4)c(F)c3)ccc21    59.45
6. CC(C)Oc1ccc(-c2ccc3c(n2)Oc2c(F)cccc2C3C(C)(C)C(=O)Nc2nncs2)cc1F (racemic)    49.60
7. CCCN(C)C(=O)c1ccc(-c2ccc3c(n2)Oc2ccccc2[C@@H]3C(C)(C)C(=O)Nc2nncs2)cc1F    29.68
8. CN(C)C(=O)c1ccc(-c2ccc3c(n2)Oc2c(F)cccc2C3C(C)(C)C(=O)Nc2nncs2)cc1F (racemic)    56.92
9. CC(C)(C(=O)Nc1nncs1)[C@H]1c2ccccc2Oc2nc(-c3ccc(C(=O)N4CCOCC4)c(Cl)c3)ccc21    66.06
10. CC(C)N(C)C(=O)c1ccc(-c2ccc3c(n2)Oc2ccccc2C3C(C)(C)C(=O)Nc2nncs2)cc1 (centres unmarked)    40.99
11. CC(C)(C(=O)Nc1nncs1)[C@H]1c2ccccc2Oc2nc(-c3ccc(C(=O)N4CCCC4)c(Cl)c3)ccc21    50.27
12. CSc1ccc(-c2ccc3c(n2)Oc2ccccc2C3C(C)(C)C(=O)Nc2nncs2)cc1 (centres unmarked)    48.94
13. CC(C)(C(=O)Nc1nnc(C#N)s1)[C@H]1c2ccccc2Oc2nc(-c3ccc(C(=O)N4CCOCC4)cc3)ccc21    38.45
14. CCCN(C)C(=O)c1ccc(-c2ccc3c(n2)Oc2ccccc2C3C(C)(C)C(=O)Nc2nncs2)cc1 (centres unmarked)    41.80
15. CC(C)(C(=O)Nc1nncs1)C1c2ccccc2Oc2nc(-c3ccc(Oc4ccccc4)cc3)ccc21 (centres unmarked)    34.38
16. CC(C)(C(=O)Nc1nncs1)[C@H]1c2ccccc2Oc2nc(-c3ccncc3)ccc21    35.87
17. CN(C)c1ccc(-c2ccc3c(n2)Oc2ccccc2C3C(C)(C)C(=O)Nc2nncs2)cc1 (centres unmarked)    43.54
18. CC(C)(C(=O)Nc1nncs1)[C@H]1c2ccccc2Oc2nc(-c3ccc(O)c(F)c3)ccc21    27.87
19. CCCOc1ccc(-c2ccc3c(n2)Oc2ccccc2C3C(C)(C)C(=O)Nc2nncs2)cc1F (centres unmarked)    52.33
20. COc1ccc(CCNC(=O)Oc2ccc3c(c2)Oc2ccccc2C3C(C)(C)C(=O)Nc2nncs2)cc1 (centres unmarked)    42.30
21. CCCCOc1ccc(-c2ccc3c(n2)Oc2ccccc2C3C(C)(C)C(=O)Nc2nncs2)cc1 (centres unmarked)    39.38
22. CC(C)(C(=O)Nc1nncs1)C1c2ccccc2Oc2nc(-c3ccc(N)cc3)ccc21 (centres unmarked)    53.76
23. CC(C)S(=O)(=O)c1ccc(-c2ccc3c(n2)Oc2ccccc2C3C(C)(C)C(=O)Nc2nncs2)cc1 (centres unmarked)    28.32

* * *

tested on: AP-1 induced transcriptional activity; test: Cellular Transrepressional Assay (AP-1 luciferase reporter, PMA-activated A549 cells); assay type: cell-based; details: Homo sapiens, A549; read-out: AP-1 EC50, nM (Cellular Transrepression Assay)
Endpoint: EC50 (nM)

1) CNC(=O)Oc1ccc2c(c1)Oc1ccccc1C2C(C)(C)C(=O)Nc1nncs1 (stereo not shown)    89

* * *

target: UniProt:P04150; experiment: Glucocorticoid Receptor Binding Assay (I), fluorescence polarization, Fluormone GS Red; set-up: purified human recombinant full-length glucocorticoid receptor; purchased Invitrogen Part #2893; settings: GR Binding Assay (I); read-out: GR (Ki, nM) (GR Binding Assay (I))
Endpoint: Ki (nM)

1) CN(CCc1ccccn1)C(=O)c1ccc(-c2ccc3c(n2)Oc2ccccc2[C@@H]3C(C)(C)C(=O)Nc2nncs2)cc1    13.3
2) CC(C)(C(=O)Nc1nncs1)C1c2ccccc2Oc2cc(C(N)=O)ccc21 (stereo not shown)    62.6
3) COC(=O)CN(C)C(=O)c1ccc(-c2ccc3c(n2)Oc2ccccc2[C@@H]3C(C)(C)C(=O)Nc2nncs2)cc1    10.4
4) CN(C(=O)c1ccc(-c2ccc3c(n2)Oc2ccccc2[C@@H]3C(C)(C)C(=O)Nc2nncs2)cc1)C1CCS(=O)(=O)C1 (stereo partly shown)    4.65
5) CN(C)C(=O)c1ccc(-c2ccc3c(c2)Oc2ccccc2C3C(C)(C)C(=O)Nc2nncs2)s1 (stereo not shown)    4.5
6) CN(CCc1ccccc1)C(=O)c1ccc(-c2ccc3c(n2)Oc2ccccc2[C@@H]3C(C)(C)C(=O)Nc2nncs2)cc1    4.05
7) CC(C)(C(=O)Nc1nncs1)[C@H]1c2ccccc2Oc2nc(-c3ccc(C(=O)N[C@H]4CCC[C@H]4C(N)=O)cc3)ccc21    154
8) CC(C)(C(=O)Nc1nncs1)[C@H]1c2ccccc2Oc2nc(N3CCN(C(=O)N4CCCC4)CC3)ccc21    37.3
9) CC(C)(C)NC(=O)c1ccc(-c2ccc3c(n2)Oc2ccccc2[C@@H]3C(C)(C)C(=O)Nc2nncs2)cc1    42.1
10) CC1CC(C)CN(C(=O)c2ccc(-c3ccc4c(n3)Oc3ccccc3[C@@H]4C(C)(C)C(=O)Nc3nncs3)cc2)C1 (stereo partly shown)    24.7
11) CC(C)(C(=O)Nc1nncs1)[C@H]1c2ccccc2Oc2nc(-c3ccc(C(=O)NCCO)cc3)ccc21    31.4
12) CC(=O)N1CCCN(C(=O)c2ccc(-c3ccc4c(n3)Oc3ccccc3[C@@H]4C(C)(C)C(=O)Nc3nncs3)cc2)CC1    81.3
13) CN(Cc1ccncc1)C(=O)c1ccc(-c2ccc3c(n2)Oc2ccccc2[C@@H]3C(C)(C)C(=O)Nc2nncs2)cc1    20.3
14) CC(C)(C(=O)Nc1nncs1)C1c2ccccc2Oc2cc(C(=O)NCc3ccccc3)ccc21 (stereo not shown)    76.6
15) CNC(=O)c1ccc(-c2ccc3c(n2)Oc2ccccc2[C@@H]3C(C)(C)C(=O)Nc2nncs2)cc1OC    14.6
16) CN(C)C(=O)c1ccc(-c2ccc3c(c2)Oc2ncccc2C3C(C)(C)C(=O)Nc2nncs2)cc1 (stereo not shown)    14.8
17) Cc1nnc(NC(=O)C(C)(C)[C@H]2c3ccccc3Oc3nc(-c4cc(F)c(C(=O)N(C)C)c(F)c4)ccc32)s1    49.8
18) CCN(CC)C(=O)c1ccc(-c2ccc3c(n2)Oc2ccccc2[C@@H]3C(C)(C)C(=O)Nc2nncs2)cc1OC    18.2
19) CC(C)(C)OC(=O)N1CC=C(c2ccc3c(n2)Oc2ccccc2[C@@H]3C(C)(C)C(=O)Nc2nncs2)CC1    176
20) Cc1ccn(-c2ccc3c(n2)Oc2ccccc2[C@@H]3C(C)(C)C(=O)Nc2nncs2)c(=O)c1    424
21) CCCCN(C)C(=O)c1ccc(-c2ccc3c(n2)Oc2ccccc2[C@@H]3C(C)(C)C(=O)Nc2nncs2)cc1    10.8
22) CN(C)C(=O)c1ccc(-c2ccc3c(n2)Oc2ccccc2C3C(C)(C)C(=O)Nc2ccccn2)cc1 (stereo not shown)    53.1
23) COC1CN(C(=O)c2ccc(-c3ccc4c(n3)Oc3ccccc3[C@@H]4C(C)(C)C(=O)Nc3nncs3)cc2)C1    20
24) CC(C)(C(=O)Nc1cnns1)[C@H]1c2ccccc2Oc2nc(-c3ccc(C(=O)N4CCCC4)c(F)c3)ccc21    589
25) COc1cc(-c2ccc3c(n2)Oc2ccccc2[C@@H]3C(C)(C)C(=O)Nc2nncs2)ccc1C(=O)N1CCCCC1    126
26) CNC(=O)C1CCN(C(=O)c2ccc(-c3ccc4c(n3)Oc3ccccc3[C@@H]4C(C)(C)C(=O)Nc3nncs3)cc2)CC1    30.6
27) CN(CCO)C(=O)c1ccc(-c2ccc3c(n2)Oc2ccccc2[C@@H]3C(C)(C)C(=O)Nc2nncs2)cc1    29.3
